RUN_DESCRIPTION: Partition coefficient of compound in octanol and water by Fragmental method of Leo/Hansch
Type: physicochemical
Binary label based on logP with cut-off 3: below gives T, not below gives F.

Below, 4 compounds whose answers are already recorded.
[[record]]
smiles_string = "O=C(O)c1cc(O)c2c(c1)C(=O)c1cccc(O)c1C2=O"
category_label = "T"

[[record]]
smiles_string = "O=C1c2cccc(O)c2C(=O)c2c(O)cc(CO)cc21"
category_label = "T"

[[record]]
smiles_string = "COc1cc(O)c2c(c1)C(=O)c1cc(C)cc(O)c1C2=O"
category_label = "F"

[[record]]
smiles_string = "Cc1cc(O)c2c(c1)C(=O)c1cccc(O)c1C2=O"
category_label = "F"


Would you kindly look at the next entry?
Problem: Hello, I'm reviewing records and need to know if logP of Cc1cc(O)c2c(c1)C(=O)c1cc(O)cc(O)c1C2=O is below 3. Could you check?
Solution: T
